- protocol-summary: Pharmacokinetics of plasma uridine and D-BHB after subcutaneous administration
- Format: in vivo, Female CD-1 mice
- condition-details: female, CD-1, mouse, plasma, sc; mice, s.c. uridine 200-400 mg/kg with or without Na(D-BHB) 985.1 mg/kg; read-out: Tmax of plasma uridine (and uridine+uracil)
test-readout: Tmax

IN: Endpoint output: Tmax of O=c1ccn([C@@H]2O[C@H](CO)[C@@H](O)[C@H]2O)c(=O)[nH]1 [Uridine, uridine] . Value?
OUT: 15 to 30 min

This collection of values is drawn from patent US12558368B2.
